# target desc: T1, PTPN4-PDZ (residues G499-N604) (human), P29074
# T1 chain: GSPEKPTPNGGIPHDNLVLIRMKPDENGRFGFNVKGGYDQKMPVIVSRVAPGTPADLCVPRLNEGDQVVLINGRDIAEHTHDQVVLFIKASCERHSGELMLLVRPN
# experiment description: NMR titration, 15N-labeled PTPN4-PDZ with unlabeled peptide
quantity: Kd (µM)

binder="SWESHKSGGETRL (modifications not checked) [Cyto13-att]" quantity=Kd result_number=157

Origin of values: patent US20140302123A1
